Where do these numbers come from? They come from the supplement of paper PMC9170038.

System: MS2 coat protein
Assay: apparent KD of MS2 coat protein; designed switch direction (-1 OFF switch, 1 ON switch): 1; higher = weaker reporter binding
Details: Eterna round: R95; input ligand: FMN 200 uM
property label: apparent KD of MS2 coat protein (µM)
Response body: numeric value in µM, unit text excluded.

For AUAAAACAUGAGGAUCACCCAUGUGGCGCUGACACAGGAUAUCAUGCGGAACUGGACGUAUGAGAAGGGUGAUGCG [Diateedza] (puzzle: Same State 1) on MS2 coat protein, measured apparent KD of MS2 coat protein was 0.053

For AUUAAACAUGAGGAUCACCCAUGUCAACAAAGUCGAGGAUAUGGGCAAAUAAAAUUAGAACCAGAAGGCGAAUAAU [salish99_ss1_r3_063] (puzzle: Same State 1) on MS2 coat protein, measured apparent KD of MS2 coat protein was 0.0292

For UUGGUGUAGAUACAGGAUAUGUUGCUCGUAACAUGAGGAUCACCCAUGUAUCUAUGAGAUUAAAUGCAGAAGGGUGCACAUCACU [salish99_ss2_r3_088] (puzzle: Same State 2) on MS2 coat protein, measured apparent KD of MS2 coat protein was 0.121

For UAGCACUGUCGAGAGGAUAUGCGGUGAUGGACAUGAGGAUCACCCAUGUUAGCGACAGCAUCACGGCAGAAGGCUCUACUGCUGC [Soteed Omei mod 35] (puzzle: Same State 2) on MS2 coat protein, measured apparent KD of MS2 coat protein was 0.0117

For AGAAAACAUGAGGAUCACCCAUGUAUAGUGAAUACAGGAUAUCACCGGCUGAAAAGCCGGUGAGAAGGGUGAUCGC [Atorenri] (puzzle: Same State 1) on MS2 coat protein, measured apparent KD of MS2 coat protein was 0.149
